# assay_comment: NCI Yeast Anticancer Drug Screen. Data for the mec2-1 strain (AID 157)
# assay_conditions: S. cerevisiae mec2-1 strain, at 50.0 µM
The panel holds about 79,000 compounds, 15% with a hit somewhere; the sample as a whole holds those more often. Active and inactive are the calls of the source. No stated cut-off is given here; in the data, active means growth inhibition above about 70%; inactive means the rest.
Hi there, use one of these labels in your reply, thanks! active, inactive

Consider the worked cases shown below.
CCCCCCC=C(C(=O)OCC)C(=O)OCC = inactive
CCCNC(=O)OCc1c(COC(=O)NCCC)c(-c2ccc(Cl)c(Cl)c2)n2c1CCC2 = inactive
O=C(O)c1ccc2cc(Cl)c3ccccc3c2c1 = active
CNC(=O)OCc1c2ccncc2c(C)c2c1[nH]c1ccccc12 = active
Cc1ccc(C)c(C(=N)c2ccccc2Cc2ccccc2)c1 = active

QUERY: Write down the call the test reported for this compound. Item: O=C(NOC(=O)c1ccc([N+](=O)[O-])cc1)c1ccc(Cl)cc1
RESULT: active

QUERY: Write down the call the test reported for this compound. Item: O=P(C(=S)Nc1c(Cl)cccc1Cl)(c1ccccc1)c1ccccc1
RESULT: active

QUERY: Write down the call the test reported for this compound. Item: N#CSCC1COc2ccccc2O1 (stereo not given)
RESULT: active

QUERY: Write down the call the test reported for this compound. Item: O=C1CSC(c2ccccc2)N1c1ccc(-c2ccc(-n3c(-c4ccccc4)nc4ccccc4c3=O)cc2)cc1 (stereo not given)
RESULT: inactive

QUERY: Write down the call the test reported for this compound. Item: CN(C)CCNc1ccc2ncn3c4ccc(O)cc4c(=O)c1c23
RESULT: inactive

QUERY: Write down the call the test reported for this compound. Item: O=[N+]([O-])c1cn[n+]([O-])c2ccccc12
RESULT: active

QUERY: Write down the call the test reported for this compound. Item: CC(/C=C/c1ccc([N+](=O)[O-])o1)=N/N1CC(CN2CCOCC2)OC1=O (stereo not given)
RESULT: inactive
